Please respond with reported LDH leakage (%, Mean ± SEM) for every item in the list.
# Tested on: human platelets
# test-description: Cytotoxicity in human platelets (LDH leakage)
# Format: cell-based
# condition-notes: 3 min, 100 μM
# Procedure: 5-2. Evaluation of Cytotoxicity of Candidate Substances Using Human Platelets Leakage of lactate dehydrogenase (LDH) from the platelets was measured by a spectro-photometry method. […] Then, 100 μl of a 14 mM pyruvate solution previously heated at 37° C. was added to the reaction mixture, and absorbance was immediately measured at a wavelength of 339 nm for 1 minute using a spectrophotometer (UV-Vis spectrophotometer, UV-2201, Shidamadzu, Japan). […] The basal level of LDH (Control) was measured in plasma. […]
Kindly provide the numeric value in % only, without the unit symbol.

Provide measured LDH leakage (%, Mean ± SEM) value, entry: O=C(c1cc(O)ccc1O)N1CCc2sccc2C1
5.2

Provide measured LDH leakage (%, Mean ± SEM) value, entry: COc1cc(C(=O)Oc2c(C)occc2=O)ccc1O
5.6

Provide measured LDH leakage (%, Mean ± SEM) value, entry: COc1cc(C(=O)N2CCc3sccc3C2)ccc1O
3.6

Provide measured LDH leakage (%, Mean ± SEM) value, entry: O=C(c1cc(O)ccc1O)N1CCC(c2noc3ccc(F)cc23)CC1
2.2

Provide measured LDH leakage (%, Mean ± SEM) value, entry: COc1ccc(NC(=O)c2ccc(O)c(OC)c2)c([N+](=O)[O-])c1
3.2

Provide measured LDH leakage (%, Mean ± SEM) value, entry: O=C(c1ccc(O)c(O)c1)N1CCc2sccc2C1
2.4

Provide measured LDH leakage (%, Mean ± SEM) value, entry: CCc1occc(=O)c1OC(=O)c1ccc(O)c(OC)c1
4.0
